# assay.target: D(2) dopamine receptor (Homo sapiens) (UniProt P14416)
# Sequence (P14416 whole entry, looked up): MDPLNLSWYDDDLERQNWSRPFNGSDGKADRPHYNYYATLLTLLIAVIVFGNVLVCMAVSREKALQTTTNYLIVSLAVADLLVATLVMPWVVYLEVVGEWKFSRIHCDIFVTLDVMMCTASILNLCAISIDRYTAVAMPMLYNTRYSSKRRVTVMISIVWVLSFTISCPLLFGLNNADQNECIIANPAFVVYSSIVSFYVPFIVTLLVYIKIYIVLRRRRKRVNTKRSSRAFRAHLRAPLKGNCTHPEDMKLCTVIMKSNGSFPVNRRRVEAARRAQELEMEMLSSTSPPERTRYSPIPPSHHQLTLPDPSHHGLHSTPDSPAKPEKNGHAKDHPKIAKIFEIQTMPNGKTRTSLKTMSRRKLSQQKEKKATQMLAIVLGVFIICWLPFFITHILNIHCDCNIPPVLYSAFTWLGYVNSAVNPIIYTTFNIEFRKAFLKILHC
# assay.details: HTS Assay for Positive Allosteric Modulators of the Human D2 Dopamine Receptor: Primary Screen for Potentiators; note: 0% is about no effect
# measurement.conditions: HEK293 T-REx D2, calcium flux, EC20 dopamine potentiation; at 10 µM; active compounds read high
Screen size: about 340,000 compounds; about 1,200 (0.35%) were called active. Shown is part of a subset that was picked to be rich in actives.
measurement.type: potentiation (%)
Hi! Could you send only the number? It should be in %, unit omitted.

Worked cases, answers included:
> print(dat)
                                   compound  readout.units  data.value
1  COC(=O)c1ccc(OC)c(Cn2c(=O)n(Cc3ccccc3)c(=O)c3c2c2cc(OC)ccc2n3C)c1              %       -2.94
2  O=C(COC(=O)c1ccc(NS(=O)(=O)c2cccs2)cc1O)Nc1ccc(F)cc1              %        35.7
3  CCOC(=O)c1ccc(N2C(=O)c3n[nH]c(-c4ccco4)c3C2c2ccc(O)cc2)cc1 (stereo not drawn)              %         -20
4  CCOC(=O)N1CCc2c(sc(NCc3cccc(F)c3)c2C(=O)Nc2ccccc2OCC)C1              %       -0.26

potentiation measured on `Cc1ccc(S(=O)(=O)NCCC(=O)Nc2cccc(S(N)(=O)=O)c2)cc1C` = -4.48

potentiation measured on `CCn1c(CN2CCC(C)CC2)nc2cc(NC(=O)c3ccccc3[N+](=O)[O-])ccc21` = -38.3

potentiation measured on COCc1c(C(=O)N/N=C/C2CC=CCC2)nnn1-c1nonc1N (stereo not drawn) = 5.51

potentiation measured on `CCCSc1ncc(Cl)c(C(=O)Nc2c(C(=O)Nc3ccccc3)oc3ccccc23)n1` = 9.52

potentiation measured on `CCOc1ccc(-n2c(SCC(=O)NCc3ccccc3)nc3n[nH]c(C)c3c2=N)cc1` = -3.4

====

# assay.target: D(2) dopamine receptor (Homo sapiens) (UniProt P14416)
# assay.details: HTS Assay for Positive Allosteric Modulators of the Human D2 Dopamine Receptor: Primary Screen for Potentiators; note: 0% is about no effect
# measurement.conditions: HEK293 T-REx D2, calcium flux, EC20 dopamine potentiation; at 10 µM; active compounds read high
Out of some 340,000 compounds screened, about 1,200 (0.35%) were called active. The list comes from a sample in which actives are over-represented; it also holds close analogues and randomly drawn compounds.
measurement.type: potentiation (%)
Hi! Could you send only the number? It should be in %, unit omitted.

Worked cases, answers included:
> print(dat)
                               given.smiles  readout.units  data.value
1  CCN(CC)S(=O)(=O)c1ccc2c(c1)N(CC(=O)NCc1ccccc1)C(=O)CS2              %       -1.87
2  Cc1cccc(Cn2c(=O)n(CCC(=O)NCCc3ccc(Cl)cc3)c(=O)c3sccc32)c1              %          13
3  Cc1[nH]c2ccccc2c1C(=O)COC(=O)c1c(-c2ccccc2)noc1C              %        8.38
4  Cc1ccccc1-c1nc(SCC(=O)N(C)c2ccccc2)c2c(=O)n(C)c(=O)n(C)c2n1              %       -12.5

potentiation measured on `Cc1cccc(C(=O)N2c3nc(-c4ccco4)nn3C3(CCCCC3)[C@@H]3CCCC[C@@H]32)c1` = 11.9

potentiation measured on `O=C(NCCCN1CCN(c2cccc(Cl)c2)CC1)c1nnc(Cc2ccc(F)cc2Cl)o1` = -20.3

potentiation measured on `CCc1nn(CC(=O)N2CCN(c3cccc(C(F)(F)F)c3)CC2)c(=O)c2cc3occc3n12` = 4.66

The origin of these recorded values is PubChem BioAssay AID485347.
